- TARGET OR TEST SYSTEM: human ABHD12 (Homo sapiens, UniProt Q8N2K0)
- Construct: expressed in transfected cells; host or cells: HEK293T (transient transfection; membrane fraction)
- Sequence (Q8N2K0 whole entry): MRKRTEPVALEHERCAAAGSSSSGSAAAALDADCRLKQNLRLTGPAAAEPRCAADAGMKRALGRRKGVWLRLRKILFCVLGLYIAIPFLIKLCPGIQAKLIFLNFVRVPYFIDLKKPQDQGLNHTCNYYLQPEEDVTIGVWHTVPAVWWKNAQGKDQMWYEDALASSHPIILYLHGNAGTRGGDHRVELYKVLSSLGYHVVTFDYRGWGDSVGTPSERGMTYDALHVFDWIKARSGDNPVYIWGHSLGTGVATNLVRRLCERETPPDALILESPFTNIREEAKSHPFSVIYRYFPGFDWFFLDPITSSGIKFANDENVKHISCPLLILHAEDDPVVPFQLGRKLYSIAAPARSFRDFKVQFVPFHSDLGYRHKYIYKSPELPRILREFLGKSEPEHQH
- EXPERIMENT NOTES: ABHD12 activity by competitive ABPP with FP-TAMRA
- Assay type: biochemical
- STATED CONDITIONS: 100 µM compound; competitive ABPP with probe FP-TAMRA (250 nM); read-out: ABHD12 Inhibition (%)
Rule: YES for activity at 100 µM not less than 80%, NO for anything less.

[
  {
    "COMPOUND": "O=C(CCc1ccc(O)cc1)c1c(O)cc(O)cc1O[C@@H]1O[C@H](CO)[C@@H](O)[C@H](O)[C@H]1O [compound 67, Phlorizin]",
    "DISCRETE LABEL": "YES"
  },
  {
    "COMPOUND": "COc1ccc2ccc(=O)oc2c1CC=C(C)C [compound 62, Osthole]",
    "DISCRETE LABEL": "YES"
  },
  {
    "COMPOUND": "O=C1CCC[C@@H]2[C@H]3CCC[N+]4([O-])CCC[C@@H](CN12)[C@@H]34 (stereo partly drawn) [compound 63, Oxymatrine]",
    "DISCRETE LABEL": "YES"
  },
  {
    "COMPOUND": "O=c1cc(-c2ccccc2)oc2cc(O)c(O)c(O)c12 [compound 14, Baicalein]",
    "DISCRETE LABEL": "YES"
  },
  {
    "COMPOUND": "C=C[C@H]1CN2CC[C@H]1C[C@H]2[C@H](O)c1ccnc2ccccc12 [compound 21, Cinchonidine]",
    "DISCRETE LABEL": "NO"
  },
  {
    "COMPOUND": "O=C(O)c1cc(=O)[nH]c(=O)[nH]1 [compound 61, Orotic acid]",
    "DISCRETE LABEL": "YES"
  },
  {
    "COMPOUND": "O=c1c2ccccc2nc2n1CCc1c-2[nH]c2ccccc12 [compound 71, Rutaecarpine]",
    "DISCRETE LABEL": "YES"
  },
  {
    "COMPOUND": "O=C(/C=C/C=C/c1ccc2c(c1)OCO2)N1CCCCC1 [compound 68, Piperine]",
    "DISCRETE LABEL": "YES"
  },
  {
    "COMPOUND": "N#C[C@H](O[C@@H]1O[C@H](CO[C@@H]2O[C@H](CO)[C@@H](O)[C@H](O)[C@H]2O)[C@@H](O)[C@H](O)[C@H]1O)c1ccccc1 [compound 7, Amygdalin]",
    "DISCRETE LABEL": "NO"
  },
  {
    "COMPOUND": "COc1ccc(CCC(=O)c2c(O)cc(O[C@@H]3O[C@H](CO)[C@@H](O)[C@H](O)[C@H]3O[C@@H]3O[C@@H](C)[C@H](O)[C@@H](O)[C@H]3O)cc2O)cc1O [compound 56, Neohesperidin dihydrochalcone]",
    "DISCRETE LABEL": "YES"
  },
  {
    "COMPOUND": "COc1ccc(-c2coc3cc(O)ccc3c2=O)cc1 [compound 31, Formononetin]",
    "DISCRETE LABEL": "NO"
  },
  {
    "COMPOUND": "C=C1C(=O)[C@]23[C@H](O)[C@H]1CC[C@H]2[C@@]12CO[C@]3(O)[C@@H](O)[C@@H]1C(C)(C)CC[C@@H]2O [compound 60, Oridonin]",
    "DISCRETE LABEL": "NO"
  },
  {
    "COMPOUND": "CC1(C)CC[C@]2(C(=O)O)CC[C@]3(C)C(=CC[C@@H]4[C@@]5(C)CC[C@H](O)C(C)(C)[C@@H]5CC[C@]43C)[C@@H]2C1 [compound 59, Oleanolic Acid]",
    "DISCRETE LABEL": "NO"
  },
  {
    "COMPOUND": "C[C@@H]1O[C@@H](OC[C@H]2O[C@@H](Oc3c(-c4ccc(O)c(O)c4)oc4cc(O)cc(O)c4c3=O)[C@H](O)[C@@H](O)[C@@H]2O)[C@H](O)[C@H](O)[C@H]1O [compound 72, Rutin]",
    "DISCRETE LABEL": "YES"
  },
  {
    "COMPOUND": "O=c1c(O)c(-c2ccc(O)c(O)c2)oc2cc(O)ccc12 [compound 29, Fisetin]",
    "DISCRETE LABEL": "NO"
  },
  {
    "COMPOUND": "O=C(O[C@@H]1Cc2c(O)cc(O)cc2O[C@@H]1c1cc(O)c(O)c(O)c1)c1cc(O)c(O)c(O)c1 [compound 2, (-)-Epigallocatechin Gallate]",
    "DISCRETE LABEL": "NO"
  },
  {
    "COMPOUND": "C[C@H]1[C@H](OC(=O)CCC(=O)O)O[C@@H]2O[C@@]3(C)CC[C@H]4[C@H](C)CC[C@@H]1[C@@]24OO3 [compound 11, Artesunate]",
    "DISCRETE LABEL": "NO"
  },
  {
    "COMPOUND": "COc1ccc([C@@H]2CC(=O)c3c(O)cc(O)cc3O2)cc1O [compound 37, Hesperetin]",
    "DISCRETE LABEL": "YES"
  },
  {
    "COMPOUND": "C=CCc1ccc(O)c(-c2cc(CC=C)ccc2O)c1 [compound 48, Magnolol]",
    "DISCRETE LABEL": "YES"
  },
  {
    "COMPOUND": "O=C(O)CCCc1c[nH]c2ccccc12 [compound 4, 3-Indolebutyric acid]",
    "DISCRETE LABEL": "NO"
  },
  {
    "COMPOUND": "COc1ccc(-c2oc3c(CC=C(C)C)c(O[C@@H]4O[C@H](CO)[C@@H](O)[C@H](O)[C@H]4O)cc(O)c3c(=O)c2O[C@@H]2O[C@@H](C)[C@H](O)[C@@H](O)[C@H]2O)cc1 [compound 41, Icariin]",
    "DISCRETE LABEL": "NO"
  },
  {
    "COMPOUND": "Cc1cc(=O)oc2cc(O)ccc12 [compound 5, 4-Methylumbelliferone]",
    "DISCRETE LABEL": "NO"
  }
]
